// data source = PubChem BioAssay (NCATS)

ASSAY INFO: qHTS for differential inhibitors of proliferation of Plasmodium falciparum line W2 (AID 1883);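 note: parasites grown with compound for 72 h before lysis and staining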
MEASUREMENT PARAMETERS: Plasmodium falciparum W2 proliferation inhibition; series mostly up to 28.7 µM
Records with an inconclusive call do not appear. Activity calls are given as the source filed them. Calls come from the whole dose curve; as a rule, active = well fitted curve in the direction sought with a large enough effect; inconclusive = small, poorly fitted or top-dose-only effect, or another doubt; inactive = no such curve, though single readings can be large or run the other way.
Outcome codes: True (active), False (inactive)

{"columns": ["MOLECULE", "CATEGORY"],
 "data": [
  ["CCN1CCC[C@H]1CNC(=O)c1cc(S(N)(=O)=O)ccc1OC", "False"],
  ["NCCS", "False"],
  ["CC1(C)CCC2=C(O1)c1ccccc1C(=O)C2=O", "True"],
  ["CCCNC(=O)NS(=O)(=O)c1ccc(Cl)cc1", "False"],
  ["O=c1c(-c2ccc(O)cc2)coc2cc(O)ccc12", "False"],
  ["O=C1NC(=O)C(c2ccccc2)(c2ccccc2)N1", "False"],
  ["Clc1ccc(Cn2c(CN3CCCC3)nc3ccccc32)cc1", "True"],
  ["CN(C)CCC(c1ccccc1)c1ccccn1 (configuration not stated)", "True"],
  ["O=c1cc(-c2ccc(O)cc2)oc2cc(O)cc(O)c12", "True"],
  ["CC(=O)CCCCn1c(=O)c2c(ncn2C)n(C)c1=O", "False"],
  ["COc1cccc(-c2cc(=O)c3ccccc3o2)c1N", "True"],
  ["CC1=C(/C=C/C(C)=C/C=C/C(C)=C/C(=O)Nc2ccc(O)cc2)C(C)(C)CCC1", "True"]
]}
